Measured values drawn from patent US12678464B2 for this set.

Assay: clinical
Conditions: human, in vivo, intravenous, 50 mg/kg
quantity: half-life (days)
Numbers only, in days.

Reported half-life, compound O=P1(N(CCCl)CCCl)NCCCO1 (stereo not shown) [Cyclophosphamide, monohydrate] : ____
2.5
